target: truncated (ΔP3/A11AP) preQ1-II riboswitch aptamer construct; assay: 2-aminopurine fluorescence titration of preQ1 binding, truncated aptamer; conditions: 0.5 μM RNA, 50 mM KMOPS, 100 mM KCl, Mg2+, 25° C.; 2-aminopurine at position A11
attribute measured: Kd (µM)
Write the answer as a number in µM, unit excluded.

Q: Item NCC1C=Nc2nc(N)[nH]c(=O)c21 (stereo not shown) [preQ1, 7-aminomethyl-7-deazaguanine] : provide Kd
Ans: 4.2
